Molecular target: KRAS WT (Homo sapiens (Human), UniProt P01116+P62937)
Sequence (P01116-2 other isoform, or with tags, fused parts or gaps): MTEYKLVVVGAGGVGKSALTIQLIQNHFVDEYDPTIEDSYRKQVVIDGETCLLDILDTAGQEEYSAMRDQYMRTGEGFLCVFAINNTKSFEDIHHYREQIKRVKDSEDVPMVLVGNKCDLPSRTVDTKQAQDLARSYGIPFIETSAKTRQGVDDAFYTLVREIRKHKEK
Sequence (P62937 whole entry): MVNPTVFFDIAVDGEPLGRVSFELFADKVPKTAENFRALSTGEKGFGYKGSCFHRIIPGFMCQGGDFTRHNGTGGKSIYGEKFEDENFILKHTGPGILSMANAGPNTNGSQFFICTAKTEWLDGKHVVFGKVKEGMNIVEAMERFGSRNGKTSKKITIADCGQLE
Test: Ras-Raf (BRAF RBD) disruption / FRET / MOA assay, KRAS WT
Type: biochemical
Details: read-out: IC50* KRAS WT FRET data
Measured IC50 by item

molecule: C=CC(=O)N(C)[C@@H]1C[C@H](C)N(C(=O)N(C)[C@H](C(=O)N[C@H]2Cc3nc(cs3)-c3ccc4c(c3)c(c(-c3cccnc3[C@H](C)OC)n4CC)CC(C)(C)COC(=O)[C@@H]3CCCN(N3)C2=O)C(C)C)C1 (atropisomer, axis not shown) [Example A633]
IC50: 10 to 100 nM
//
molecule: CCn1c(-c2cccnc2[C@H](C)OC)c2c3cc(ccc31)-c1csc(n1)C[C@H](NC(=O)[C@H](F)COC1CN(C(=O)C#CC(C)(C)N(C)C)C1)C(=O)N1CCC[C@H](N1)C(=O)OCC(C)(C)C2 (atropisomer, axis not shown) [Example A627]
IC50: > 10000 nM

The values you see were collected from patent US11566007B2.
